protocol.notes: Pharmacokinetic analysis of TEF in terms of GA-H after oral administration to rats (HPLC of plasma and urine)
Format: in vivo, Albino Wistar rats
condition.details: Albino Wistar, rat, plasma, po, 85 mg/kg; read-out: mean residence time in blood

molecule	MRT
CC(=O)O[C@@H]1C(=O)C2=C(C(=O)C[C@H]3C(C)(C)[C@@H](O)CC[C@]23C)[C@]2(C)C(=O)C[C@H]([C@H](C)CC(=O)CC(C)C(=O)O)[C@@]12C (stereo partly shown) [GA-H, ganoderic acid H]	5.42 h

---

protocol.notes: Pharmacokinetic analysis of TEF in terms of GA-H after oral administration to rats (HPLC of plasma and urine)
Assay type: in vivo, Albino Wistar rats
condition.details: Albino Wistar, rat, plasma, po, 85 mg/kg; read-out: half-life in blood (converted)
From the text: Alliance HPLC system (e2695 Separation module, Waters, Milford, MA, USA) with a gradient pump integrated with adjustable wavelength programmable photodiode array detector (PDA) was employed for analysis. […] The maximum plasma concentration (Cmax) and time to attain maximum concentration (Tmax) were directly assessed by plasma concentration–time graph. […]

compound	quantity.unit	half-life
CC(=O)O[C@@H]1C(=O)C2=C(C(=O)C[C@H]3C(C)(C)[C@@H](O)CC[C@]23C)[C@]2(C)C(=O)C[C@H]([C@H](C)CC(=O)CC(C)C(=O)O)[C@@]12C (stereo partly shown)	h	13.2

Where these numbers come from: paper PMC8876931
